assay: Cytotoxicity against rat PC-12 cells measured after 24 hrs by MTT assay; assay type: toxicity, cell-based
For each of the molecules below, state its IC50 at 24 h.

Task item: What does the record list as IC50 at 24 h for CCCCCCCCCCCCC/C=C/[C@@H](O)[C@H](CO[C@@H]1O[C@H](CO)[C@@H](O[C@@H]2O[C@H](CO)[C@H](O)[C@H](O[C@]3(C(=O)O)C[C@H](O)[C@@H](NC(=O)c4cc(C)cc(C)c4)[C@H]([C@H](O)[C@H](O)CO)O3)[C@H]2O)[C@H](O)[C@H]1O)NC(=O)CCCCCCCCCCCCCCCCC ?
Reply: > 200 µM

Task item: Entry to check: CCCCCCCCCCCCC/C=C/[C@@H](O)[C@H](CO[C@@H]1O[C@H](CO)[C@@H](O[C@@H]2O[C@H](CO)[C@H](O)[C@H](O[C@]3(C(=O)O)C[C@H](O)[C@@H](NC(=O)c4cccc([N+](=O)[O-])c4)[C@H]([C@H](O)[C@H](O)CO)O3)[C@H]2O)[C@H](O)[C@H]1O)NC(=O)CCCCCCCCCCCCCCCCC
Reply: > 200 µM
